meta.source: PubChem BioAssay (NCI)

- System: SNB-75 CNS
- ASSAY METHOD TEXT: NCI tumour cell line growth inhibition, 48 h
EXPERIMENTAL ENDPOINT: TGI (µM)
Value expressed in µM; do not type the unit.

Ask: Please look at this molecule and report its TGI: CN1CCN(Cc2ccc(NC(=O)c3cncc(C#Cc4c(N)ncc5ccc(C#N)cc45)c3)cc2C(F)(F)F)CC1
Result: 4.54

Ask: Annotate the molecule COc1ccc2nc3c([N+](=O)[O-])ccc(NCCN(C)C)c3c(N)c2c1 with its measured TGI.
Result: 2.62

###

- System: HT29 colon
- ASSAY METHOD TEXT: NCI tumour cell line growth inhibition, 48 h
Threshold rule: TGI greater than or equal to 40 µM is 1; below that, -1.

Use these answered entries as a reference point.
molecule=Nc1nc(Cl)cc(OCC2(CO)CCCC2)n1 answer_label=1
molecule=O=C1c2cc(I)ccc2N2CCN=C2N1Cc1ccccc1 answer_label=1
molecule=C/C(CCC(=O)O)=N/Nc1ccc([N+](=O)[O-])cc1 answer_label=1
molecule="COC(=O)C1CSC(c2csc(CCN)n2)=N1 (stereo unspecified)" answer_label=1
molecule=N[C@H]1c2c(Br)sc(Br)c2C(=O)[C@H]1O answer_label=-1

Ask: Assess whether reported TGI for CCc1ccccc1NC(=O)C(C#N)C1=C(Cl)C(=O)c2ccccc2C1=O (stereo unspecified) sits at 40 µM or higher.
Result: -1

Ask: Answer whether TGI of COc1ccc(-c2coc3cc(O)ccc3c2=O)cc1 is greater than or equal to 40 µM.
Result: 1

Ask: Identify whether the reported TGI of the following molecule is 40 µM or greater: Oc1c(C(Nc2ccccn2)c2cccc(Oc3ccccc3)c2)ccc2cccnc12 (stereo unspecified)
Result: -1

Ask: Say whether CCC12CCCN(Cc3ccccc3)C1c1c(n(C)c3ccccc13)C(CO)C2 (stereo unspecified) shows TGI of 40 µM or more.
Result: 1

Ask: Form field: TGI at least 40 µM? Entry: CC(=O)C1=C(C)O[C@@H]2O[C@H](COCc3ccccc3)[C@@H](OCc3ccccc3)[C@H](O)[C@@H]2S1
Result: 1

Ask: Has CNC(=O)N(CCC#N)CCN(C(=O)NC)c1ccccc1 a recorded TGI greater than or equal to 40 µM?
Result: 1
